test: soluble fraction after stress (log2 fold change); higher = more stays soluble; pooled small domains, quantitative proteomics; settings: stress: 75 degC;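 also: 20 min heating vs room temperature control held 20 min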
Quantity measured: soluble fraction (log2)
Answers are plain numbers.

Sample answers from the record:
Item under review: `HMSFTSQSVLIEIVRGTTQLTPLAAAVGANKREVVLAVHRLKQRGLVVSAGLGQYAATEAGRAFLTAGREV` . Reported soluble fraction (log2)?
-3.43

Would you mind telling me what soluble fraction (log2) value was observed for `HMKEQYTELDWDKVQVNDKVMIKDLNQQVTILSLPDKNNALYIQMGMIKTKVKKEKLAVYNPQLA` ?
-2

For the sequence shown here, `HMKTALDEAKDFLNGALSKGHRPASDVVDEAKEASISEKTLKRAKLAIGIITRKEGFGSEGKWVWELPAR` , give the reported soluble fraction (log2).
-0.375

Hi, could you look up soluble fraction (log2) for each item in my list?
1. HMELEFLTEKQKEALILAVNRGYYDVDSEVTLKRLADELGIARSTYGEHLKRAESEALKMVVSDLLRD
2. HMPNDYRKKLEILAKEKGAEYLHTMLTEVDPKSALQIHTNNIKRTIRALEFYHQTGMKISEHNEAEREK
3. HMSQTDTDAKDARQKILALLSDGEWHQKTELLKIDAPKEAVSNAIRYLVLEELISIDHAKVRA
4. HMTALTTEDLERRFYAKTYEGESAQKRLARLEISVFGELRQGRPESDRLHDLNNAVLEKERAALNAGAVG

-0.556
-0.204
-0.447
0.063
